Test system: BDF1 mice, B16 melanoma ip, median survival T/C
Assay: NCI In Vivo Anticancer Drug Screen. Data for tumor model B16 Melanoma (intraperitoneal) in B6D2F1 (BDF1) mice
Conditions: endpoint: median survival time; dose: 100.0 mg/kg/injection; schedule: Q01DX009 (ip); vehicle: Klucel (hydroxypropylcellulose) (HPC); higher = longer survival
Inconclusive results and toxic doses are left out.
Reported values of T/C for individual entries
quantity-measured: T/C

> print(dat)
                             chemical.string                               test.target            result
 1   Cc1ccc(S(=O)(=O)N/N=C\c2cc(Cl)ccc2O)cc1  BDF1 mice, B16 melanoma ip, median survival T/C  100 % of control
 2                   S=C(Nc1ccccn1)Nc1ccccn1  BDF1 mice, B16 melanoma ip, median survival T/C  111 % of control
 3      Cc1cc(C)c(NC(=O)Nc2cccc(Cl)c2)c(C)c1  BDF1 mice, B16 melanoma ip, median survival T/C   88 % of control
 4                  CN(C)N=Nc1cn[nH]c1C(N)=O  BDF1 mice, B16 melanoma ip, median survival T/C   98 % of control
 5  O=C(Nc1ccc(Cl)c(Cl)c1)Nc1c(Oc2ccc(Cl)c(Cl)c2)ccc(Cl)c1S(=O)(=O)O  BDF1 mice, B16 melanoma ip, median survival T/C  123 % of control
 6  O=C(O)c1ccccc1C(=O)O.[C-]#[O+].[C-]#[O+].[C-]#[O+].[C-]#[O+].[Rh].[Rh]  BDF1 mice, B16 melanoma ip, median survival T/C  108 % of control
 7          CC(=O)CC(=O)Nc1ccc(C(=O)O)c(O)c1  BDF1 mice, B16 melanoma ip, median survival T/C   86 % of control
 8                         Cn1c2c(sc1=O)CCC2  BDF1 mice, B16 melanoma ip, median survival T/C  100 % of control
 9              CCOC(=O)NNC(=O)c1ccccc1N(C)C  BDF1 mice, B16 melanoma ip, median survival T/C  116 % of control
10         CC1CCN(c2ccc([N+](=O)[O-])cc2)CC1  BDF1 mice, B16 melanoma ip, median survival T/C  106 % of control
11        O=C(O)c1c(O)c(-c2ccccc2)nc2ccccc12  BDF1 mice, B16 melanoma ip, median survival T/C  103 % of control
12  CC[C@H](CC[C@@H](C)[C@H]1CC[C@H]2[C@@H]3CC=C4C[C@@H](O)CC[C@]4(C)[C@H]3CC[C@]12C)C(C)C  BDF1 mice, B16 melanoma ip, median survival T/C   91 % of control
